- assay_remarks: qHTS Assay for Lipid Storage Modulators in Drosophila S3 Cells
- particulars: BODIPY lipid droplet fluorescence, 18-24 h, cells fed with added oleic acid; series mostly up to 46.1 µM
Among all 320,000 compounds or so, about 2,100 (0.66%) were called active. Inconclusive results (about 53%) are left out. Calls follow the shape of the dose curve; as a rule, active = well fitted inhibition curve with a large enough effect in the signal ratio, with a control signal flat (not every such curve was filed as active); inconclusive = small, poorly fitted or top-dose-only effect, or effect the other way, or a change in a side signal; inactive = flat fitted curve, though single readings scatter; the % refers to the signal ratio. This is one part of a sample in which actives are shown more often than they occur.
Outcomes: class 1 for active, class 0 for inactive

[
  {
    "molecule": "CC(C)(C)NC(=O)C(c1ccc(F)cc1)N(Cc1ccco1)C(=O)c1csnn1 (configuration not stated)",
    "assigned_category": "class 0"
  },
  {
    "molecule": "O=C(NCN1CCc2ccccc2C1)c1ccccc1",
    "assigned_category": "class 0"
  },
  {
    "molecule": "COc1cc(CO)cc(Br)c1OCC(=O)O",
    "assigned_category": "class 1"
  },
  {
    "molecule": "CCn1cc([N+](=O)[O-])c(C(=O)N2CCCC2)n1",
    "assigned_category": "class 1"
  },
  {
    "molecule": "COc1ccccc1C(=O)Nc1ccc2[nH]ncc2c1",
    "assigned_category": "class 0"
  },
  {
    "molecule": "CCn1cc([N+](=O)[O-])c(C(=O)N2CCOCC2)n1",
    "assigned_category": "class 0"
  },
  {
    "molecule": "CCNCc1cc(Br)c(OCC(=O)Nc2ccccc2)c(OC)c1",
    "assigned_category": "class 0"
  },
  {
    "molecule": "C=CCNC(=S)NNC(=O)C(CCCC)CC(O)COCC(C)C (configuration not stated)",
    "assigned_category": "class 0"
  },
  {
    "molecule": "O=C(Nc1ccc(F)cc1)c1csc(Cc2ccccc2)n1",
    "assigned_category": "class 0"
  },
  {
    "molecule": "COc1cc(CO)cc(Br)c1OCc1cccnc1",
    "assigned_category": "class 0"
  },
  {
    "molecule": "C/C(=N\\NC(=O)c1cccc([N+](=O)[O-])c1)c1cccc(NC(=O)C2CC2)c1",
    "assigned_category": "class 0"
  },
  {
    "molecule": "CCn1c(NC(=O)c2cccc(Cn3cc(Cl)cn3)c2)nc2ccccc21",
    "assigned_category": "class 0"
  }
]
